TARGET UNDER TEST: T1, cynomolgus Tim-3 expressed on CHO cells (cynomolgus monkey)
T1 construct: also called cTim-3; Cyno Tim-3 (CHO)
T1 chain: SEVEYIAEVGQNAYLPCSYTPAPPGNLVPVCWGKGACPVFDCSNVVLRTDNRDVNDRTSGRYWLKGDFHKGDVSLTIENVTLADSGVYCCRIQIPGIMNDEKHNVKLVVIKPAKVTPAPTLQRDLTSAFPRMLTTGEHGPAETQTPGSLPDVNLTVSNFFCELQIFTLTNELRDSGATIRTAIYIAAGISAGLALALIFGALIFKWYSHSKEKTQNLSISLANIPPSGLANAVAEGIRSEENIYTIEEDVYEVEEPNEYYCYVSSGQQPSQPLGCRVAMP
MEASUREMENT PROTOCOL: flow cytometry, CHO-cyno Tim-3 cells
ENDPOINT LABEL: pKd
// pKd here means minus log10 of the molar concentration (mol/L)

Given the binder h22E11-VK4-1 × h22E11-VH4-30-4 (antibody, V domains shown, Humanized m22E11) VH: QVQLQESGPGLVKPSQTLSLTCTVSGFSLTSYGVHWIRQPPGKGLEWLVVIWSDGSTTYNPSLKSRVTISKDTSKNQVSLKLSSVTAADTAVYYCARQGGYRYDDAMDYWGQGTLVTVSS VL: DIVLTQSPDSLAVSLGERATINCKASQSVDYDGNSYVNWYQQKPGQPPKLLIYAASNLESGVPDRFSGSGSGTDFTLTISSLQAEDVAVYYCQQSNEDPYTFGQGTKVEIK , what is its reported pKd?
8.30

Given the binder h22E11-VK3-11 × h22E11-VH1-69 (antibody, V domains shown, Humanized m22E11) VH: QVQLVQSGAEVKKPGSSVKVSCKVSGFSLTSYGVHWVRQAPGQGLEWLVVIWSDGSTTYNQKFQGRVTITKDESTSTVYMELSSLRSEDTAVYYCARQGGYRYDDAMDYWGQGTLVTVSS VL: EIVLTQSPATLSLSPGERATLSCKASQSVDYDGNSYVNWYQQKPGQAPRLLIYAASNLESGIPARFSGSGSGTDFTLTISSLEPEDFAVYYCQQSNEDPYTFGQGTKVEIK , what is its reported pKd?
8.55

Given the binder h22E11-VK2-28 × h22E11-VH4-30-4 (antibody, V domains shown, Humanized m22E11) VH: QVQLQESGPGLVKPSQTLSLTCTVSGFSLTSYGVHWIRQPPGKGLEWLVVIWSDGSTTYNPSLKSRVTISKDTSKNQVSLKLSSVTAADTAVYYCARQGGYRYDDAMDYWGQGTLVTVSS VL: DIVLTQSPLSLPVTPGEPASISCKASQSVDYDGNSYVNWYLQKPGQSPQLLIYAASNLESGVPDRFSGSGSGTDFTLKISRVEAEDVGVYYCQQSNEDPYTFGQGTKVEIK , what is its reported pKd?
8.37

Given the binder h22E11-VK1-39 × h22E11-VH4-30-4 (antibody, V domains shown, Humanized m22E11) VH: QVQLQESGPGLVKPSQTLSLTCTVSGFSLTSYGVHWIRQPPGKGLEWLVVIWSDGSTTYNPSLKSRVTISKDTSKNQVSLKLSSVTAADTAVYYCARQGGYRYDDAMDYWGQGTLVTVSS VL: DIQLTQSPSSLSASVGDRVTITCKASQSVDYDGNSYVNWYQQKPGKAPKLLIYAASNLESGVPSRFSGSGSGTDFTLTISSLQPEDFATYYCQQSNEDPYTFGQGTKVEIK , what is its reported pKd?
8.26

Given the binder h22E11-VK1-39 × h22E11-VH5-51 (antibody, V domains shown, Humanized m22E11) VH: EVQLVQSGAEVKKPGESLKISCKVSGFSLTSYGVHWVRQMPGKGLEWLVVIWSDGSTTYNPSFQGQVTISKDKSISTVYLQWSSLKASDTAMYYCARQGGYRYDDAMDYWGQGTLVTVSS VL: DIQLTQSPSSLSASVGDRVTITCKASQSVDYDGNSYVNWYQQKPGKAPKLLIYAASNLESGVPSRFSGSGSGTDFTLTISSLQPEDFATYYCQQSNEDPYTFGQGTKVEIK , what is its reported pKd?
8.68
